Origin of the recorded values: ChEMBL document CHEMBL1201862

Tested on: OVCAR-5
assay name: NCI tumour cell line growth inhibition, 48 h
Activity calls are given as the source filed them. Cut-off read from the data, not from the text of the source: active = GI50 up to about 1.1 µM and inactive = higher.
Outcomes: active, inactive

- compound: "CC(C)SC(NC(=O)C1C(C)(C)CCC1(C)C)C(=O)O (stereo unspecified)"
  assigned label: "inactive"
- compound: "Cc1cnccc1/N=N/c1ccc(N(C)C)cc1"
  assigned label: "inactive"
- compound: "COc1ccc(/C=C\\c2cc(OC)c(OC)c(OC)c2)cc1OC(=O)CC(N)C(=O)O (stereo unspecified)"
  assigned label: "active"
- compound: "N[C@H](C(=O)O)[C@@H]1CC(Br)=NO1"
  assigned label: "inactive"
- compound: "O=C(CNC(=O)OCc1ccccc1)Oc1ccccc1"
  assigned label: "inactive"
- compound: "O=C/C(=C1/C=Cc2cc([N+](=O)[O-])ccc2S1)c1ccccc1"
  assigned label: "inactive"

---

This listing pairs molecules with measured GI50.
Test system: SK-MEL-28
assay name: NCI tumour cell line growth inhibition, 48 h
Active and inactive are the calls of the source. Cut-off read from the data, not from the text of the source: active = GI50 up to about 1.1 µM and inactive = higher.

- molecule: "COc1nc2c(c(=O)n1C)NC(C(O)C(O)CO)C=N2 (stereo unspecified)"
  system tested: "SK-MEL-28"
  GI50: "> 10 µM (inactive)"
- molecule: "COC1OC(C)C(NC(=O)OCC(Cl)(Cl)Cl)C2OC(C)(C)OC12 (stereo unspecified)"
  system tested: "SK-MEL-28"
  GI50: "> 100 µM (inactive)"
- molecule: "O=C1OCC(c2ccc(Cl)cc2)=C1Cl"
  system tested: "SK-MEL-28"
  GI50: "49.9 µM (inactive)"
- molecule: "N#CCCCCC12C3C(=O)N(c4ccccc4)C(=O)C3ON1O[C@@H]1C(=O)N(c3ccccc3)C(=O)[C@@H]12 (stereo partly specified)"
  system tested: "SK-MEL-28"
  GI50: "> 100 µM (inactive)"
- molecule: "O=C(Nc1ccccc1F)c1cc2ccc(O)cc2o/c1=N\\c1ccccc1F"
  system tested: "SK-MEL-28"
  GI50: "2.45 µM (inactive)"
- molecule: "CC(=O)c1c(C(F)(F)F)[n+]([O-])c2cc(Cl)c(Cl)cc2[n+]1[O-]"
  system tested: "SK-MEL-28"
  GI50: "1.88 µM (inactive)"
- molecule: "COC1OC(CO)C(O)C(OC(C)=O)C1NC(=O)N(CCCl)N=O (stereo unspecified)"
  system tested: "SK-MEL-28"
  GI50: "> 100 µM (inactive)"
- molecule: "O=c1c2ccccc2[nH]c2c(Cl)cc(Cl)c(N3CCCCC3)c12"
  system tested: "SK-MEL-28"
  GI50: "58.5 µM (inactive)"
- molecule: "CC1C[C@]2(C)C(=O)N(c3ccccc3)C(=N)[C@@H]2N(C)c2ccccc21 (stereo partly specified)"
  system tested: "SK-MEL-28"
  GI50: "> 100 µM (inactive)"
- molecule: "O=c1c(-c2ccccc2)c2oc(c1-c1ccccc1)CS(=O)(=O)CCC2"
  system tested: "SK-MEL-28"
  GI50: "17.5 µM (inactive)"
- molecule: "O/N=C1\\CSc2ccccc2C1"
  system tested: "SK-MEL-28"
  GI50: "> 100 µM (inactive)"

---

Test system: NCI/ADR-RES
assay name: NCI tumour cell line growth inhibition, 48 h
Activity calls are given as the source filed them. Rule as the data show it: active = GI50 up to about 1.1 µM and inactive = higher.

- compound: "CCN(CC(COc1ccc2c(c1)[n+]([O-])nc(N)[n+]2[O-])OC(C)=O)C(C)=O (stereo not drawn)"
  GI50: "> 100 µM (inactive)"
- compound: "CCc1[nH]nc(C(N)=O)c1/N=N/N(C)C"
  GI50: "94.8 µM (inactive)"
- compound: "CC(=O)OC12c3ccccc3C(c3ccccc31)C1C(=O)N(c3ccccc3O)C(=O)C12 (stereo not drawn)"
  GI50: "> 100 µM (inactive)"

---

Test system: SNB-75
assay name: NCI tumour cell line growth inhibition, 48 h
The source made the active and inactive calls. Rule as the data show it: active = GI50 up to about 1.1 µM and inactive = higher.
Outcomes: active, inactive

- molecule: "COc1c2c(c3c(c1OC)c(=O)c1ccccc1n3C)OCO2"
  assigned label: "inactive"
- molecule: "Cc1nc2ccccc2c(=O)n1NC(=O)c1ccccc1[N+](=O)[O-]"
  assigned label: "inactive"
- molecule: "COC(=O)c1ccc([N+](=O)[O-])c(O)c1"
  assigned label: "inactive"
- molecule: "O=C1CCC2c3ccccc3NCN12 (stereo unspecified)"
  assigned label: "inactive"
- molecule: "CCc1ccccc1NC(=O)C(=O)C1C(=O)N(c2ccccc2)N=C1N (stereo unspecified)"
  assigned label: "inactive"
- molecule: "O=C1Cc2c(-c3cccs3)cc(-c3ccccc3)nc2-c2ccccc2N1"
  assigned label: "active"
- molecule: "N=C(N)c1ccc(/N=N\\c2c(O)ccc3cc4c(/N=N\\c5ccc(C(=N)N)cc5)c(O)ccc4cc23)cc1"
  assigned label: "inactive"
- molecule: "C#CC1=CC(=O)C(OC)=CC1=O"
  assigned label: "active"
- molecule: "CSc1ncnc2c1ncn2CCC#N"
  assigned label: "inactive"
- molecule: "CC1=NN(C(=O)c2ccccc2O)C(=O)/C1=C/c1c(O)ccc2ccccc12"
  assigned label: "inactive"
- molecule: "Cn1nc(-c2ccccc2NC(=O)C(F)(F)F)c(=O)n(C)c1=S"
  assigned label: "inactive"

---

Test system: OVCAR-4
assay name: NCI tumour cell line growth inhibition, 48 h
Active and inactive are the calls of the source. No stated cut-off is given here; in the data, active = GI50 up to about 1.1 µM and inactive = higher.
This listing pairs molecules with measured GI50.
observation type: GI50

- molecule: "COc1cccc(C=C(C#N)C#N)c1OC"
  system tested: "OVCAR-4"
  measured: "> 100 µM (inactive)"
- molecule: "CCOC(=O)CCC(NC(=O)c1ccc(Nc2nc3ccccc3nc2-c2cccs2)cc1)C(=O)OCC (stereo not given)"
  system tested: "OVCAR-4"
  measured: "23.9 µM (inactive)"
- molecule: "CN(C)/C=N\\c1nncc2[nH]cnc12"
  system tested: "OVCAR-4"
  measured: "> 100 µM (inactive)"
- molecule: "COc1ccc(NC(=O)CSc2nnc(-c3ccc(NC(C)=O)cc3)o2)cc1"
  system tested: "OVCAR-4"
  measured: "15.7 µM (inactive)"
- molecule: "Cc1ccccc1NC(=O)C(=O)CC(=O)c1c(C)[n+]([O-])c2ccccc2[n+]1[O-]"
  system tested: "OVCAR-4"
  measured: "76.9 µM (inactive)"
- molecule: "CC(C)(C)C1CC[C@H](O)[C@H]([C@@H](O)CC2CC(=O)N(c3ccccc3)C(=O)C2)C1 (stereo not given in full)"
  system tested: "OVCAR-4"
  measured: "57.5 µM (inactive)"
- molecule: "COc1cc(C(C)O)c[n+](CCc2c[nH]c3ccccc23)c1 (stereo not given)"
  system tested: "OVCAR-4"
  measured: "> 100 µM (inactive)"
- molecule: "OCC(O)C(O)C(O)C(O)c1nc2cc(Cl)ccc2[nH]1 (stereo not given)"
  system tested: "OVCAR-4"
  measured: "> 100 µM (inactive)"
- molecule: "O=C(Nc1ccccc1F)c1cc2ccc(O)cc2o/c1=N\\c1ccccc1F"
  system tested: "OVCAR-4"
  measured: "1.85 µM (inactive)"
- molecule: "C[C@]12CCc3nonc3C1CC[C@@H]1C2CC[C@]2(C)C(=O)/C(=N\\O)CC12 (stereo not given in full)"
  system tested: "OVCAR-4"
  measured: "48.2 µM (inactive)"
- molecule: "CCCCCCCCCCCCCCC1OC(=O)c2ccccc21 (stereo not given)"
  system tested: "OVCAR-4"
  measured: "66.7 µM (inactive)"
- molecule: "NC1=NN(c2ccccc2)C(=O)C1C(=O)C(=O)NC1C2CC3CC(C2)CC1C3 (stereo not given)"
  system tested: "OVCAR-4"
  measured: "> 100 µM (inactive)"
- molecule: "CC1(C)Oc2ccc3c(=O)c4ccccc4oc3c2C1C(=O)O (stereo not given)"
  system tested: "OVCAR-4"
  measured: "> 100 µM (inactive)"
- molecule: "COC(=O)C1=C(OC(=O)/C(=C/c2ccccc2)c2ccccc2)C(C(=O)OC)[C@@]2(O)[C@@H](C(=O)OC)[C@H](C)C[C@@H]1[C@@H]2C(=O)OC (stereo not given in full)"
  system tested: "OVCAR-4"
  measured: "> 100 µM (inactive)"
- molecule: "C=C1C(=O)C23[C@H](O)C1CC[C@H]2[C@]12COC3(O)[C@@H](O)[C@@H]1C(C)(C)CC[C@@H]2O"
  system tested: "OVCAR-4"
  measured: "18 µM (inactive)"
- molecule: "CCCCCC(=O)OCC1(CO)C/C(=C/CC(C(C)C)C(C)C)C(=O)O1 (stereo not given)"
  system tested: "OVCAR-4"
  measured: "53.2 µM (inactive)"
- molecule: "O=C1NC(=O)C(CCO)(c2ccccc2)C(=O)N1"
  system tested: "OVCAR-4"
  measured: "> 100 µM (inactive)"
- molecule: "CCN(CC(COc1ccc2c(c1)[n+]([O-])nc(N)[n+]2[O-])OC(C)=O)C(C)=O (stereo not given)"
  system tested: "OVCAR-4"
  measured: "50.5 µM (inactive)"
- molecule: "CC[C@]1(Cc2ccc(OC)c(OC)c2)C=[N+]([O-])O[C@H](OC2CCCC2(c2ccccc2)c2ccccc2)[C@@H]1OC(C)=O (stereo not given in full)"
  system tested: "OVCAR-4"
  measured: "4.84 µM (inactive)"
- molecule: "O=S1(=O)CCCS(=O)(=O)C(c2ccccc2)=C1c1ccccc1"
  system tested: "OVCAR-4"
  measured: "23.3 µM (inactive)"
- molecule: "CC(=O)NC(CCCCNC(=O)N(CCCl)N=O)C(=O)NCc1ccccc1 (stereo not given)"
  system tested: "OVCAR-4"
  measured: "> 100 µM (inactive)"
- molecule: "COC(=O)[C@]1(C)CCCC2(C)C3=C(CCC21)CC1(CC3)SCCS1 (stereo not given in full)"
  system tested: "OVCAR-4"
  measured: "> 10 µM (inactive)"
- molecule: "CCOC(=O)C1(C/C=C/CBr)CCc2ccccc2C1=O (stereo not given)"
  system tested: "OVCAR-4"
  measured: "13.6 µM (inactive)"
- molecule: "C=CCOCCC(CC=C)C(=O)CC(=O)OC (stereo not given)"
  system tested: "OVCAR-4"
  measured: "> 100 µM (inactive)"
- molecule: "O=C/C(=C1/C=Cc2cc([N+](=O)[O-])ccc2S1)c1ccccc1"
  system tested: "OVCAR-4"
  measured: "> 100 µM (inactive)"
- molecule: "CSc1nc(Br)nc2c1ncn2C1CC(Oc2ccc(C)cc2)C(COc2ccc(C)cc2)O1 (stereo not given)"
  system tested: "OVCAR-4"
  measured: "83 µM (inactive)"
- molecule: "COC(=O)/C=C(\\C)C(=O)N(C)c1ccccc1I"
  system tested: "OVCAR-4"
  measured: "> 100 µM (inactive)"
- molecule: "COc1ccc2c(c1)C(=O)Cc1ccccc1CC2"
  system tested: "OVCAR-4"
  measured: "> 100 µM (inactive)"
- molecule: "C[C@@H]1OC(=O)C[C@H]2CC(=O)N(CCC3CN(S(=O)(=O)C(F)(F)F)c4ccc(Cc5ccc6c(c5)C(CCN5C[C@H]7[C@@H](CC(=O)O[C@H]7C)CC5=O)CN6S(=O)(=O)C(F)(F)F)cc43)C[C@@H]21 (stereo not given in full)"
  system tested: "OVCAR-4"
  measured: "> 100 µM (inactive)"
- molecule: "O=C(NCCCCN(CCCNC(=O)C(F)(F)F)Cc1ccc2ccccc2c1)C(F)(F)F"
  system tested: "OVCAR-4"
  measured: "17.6 µM (inactive)"
